- experimental-protocol: total protein half-life in vivo (active degradation + dilution); higher = more stable protein
- run-conditions: wild type E. coli NCM3722; growth: P-lim chemostat; doubling time 6 h

{"biopolymer-sequence": "MPKLILASTSPWRRALLEKLQISFECAAPEVDETPRSDESPRQLVLRLAQEKAQSLASRYPDHLIIGSDQVCVLDGEITGKPLTEENARLQLRKASGNIVTFYTGLALFNSANGHLQTEVEPFDVHFRHLSEAEIDNYVRKEHPLHCAGSFKSEGFGITLFERLEGRDPNTLVGLPLIALCQMLRREGKNPLMG [P0A729]", "total protein half-life in vivo [h]": 5.45}
{"biopolymer-sequence": "MDQAGIIRDLLIWLEGHLDQPLSLDNVAAKAGYSKWHLQRMFKDVTGHAIGAYIRARRLSKSAVALRLTARPILDIALQYRFDSQQTFTRAFKKQFAQTPALYRRSPEWSAFGIRPPLRLGEFTMPEHKFVTLEDTPLIGVTQSYSCSLEQISDFRHEMRYQFWHDFLGNAPTIPPVLYGLNETRPSQDKDDEQEVFYTTALAQDQADGYVLTGHPVMLQGGEYVMFTYEGLGTGVQEFILTVYGTCMPMLNLTRRKGQDIERYYPAEDAKAGDRPINLRCELLIPIRR [P0ACI0]", "total protein half-life in vivo [h]": 5.31}
{"biopolymer-sequence": "MSCEELEIVWNNIKAEARTLADCEPMLASFYHATLLKHENLGSALSYMLANKLSSPIMPAIAIREVVEEAYAADPEMIASAACDIQAVRTRDPAVDKYSTPLLYLKGFHALQAYRIGHWLWNQGRRALAIFLQNQVSVTFQVDIHPAAKIGRGIMLDHATGIVVGETAVIENDVSILQSVTLGGTGKSGGDRHPKIREGVMIGAGAKILGNIEVGRGAKIGAGSVVLQPVPPHTTAAGVPARIVGKPDSDKPSMDMDQHFNGINHTFEYGDGI [P0A9D4]", "total protein half-life in vivo [h]": 5.83}

====

- experimental-protocol: total protein half-life in vivo (active degradation + dilution); higher = more stable protein
- run-conditions: wild type E. coli NCM3722; growth: C-lim chemostat; doubling time 6 h
measured-metric: total protein half-life in vivo (h)

{"biopolymer-sequence": "MLTVKQIEAAKPKEKPYRLLDGNGLYLYVPVSGKKVWQLRYKIDGKEKILTVGKYPLMTLQEARDKAWTARKDISVGIDPVKAKKASSNNNSFSAIYKEWYEHKKQVWSVGYATELAKMFDDDILPIIGGLEIQDIEPMQLLEVIRRFEDRGAMERANKARRRCGEVFRYAIVTGRAKYNPAPDLADAMKGYRKKNFPFLPADQIPAFNKALATFSGSIVSLIATKVLRYTALRTKELRSMLWKNVDFENRIITIDASVMKGRKIHVVPMSDQVVELLTTLSSITKPVSEFVFAGRNDKKKPICENAVLLVIKQIGYEGLESGHGFRHEFSTIMNEHEWPADAIEVQLAHANGGSVRGIYNHAQYLDKRREMMQWWADWLDEKVE", "unit-tag": "h", "observed": 5.53}
{"biopolymer-sequence": "MFILWYSASSTFGKDSDIVMGVRAQQKEKTRRSLVEAAFSQLSAERSFASLSLREVAREAGIAPTSFYRHFRDVDELGLTMVDESGLMLRQLMRQARQRIAKGGSVIRTSVSTFMEFIGNNPNAFRLLLRERSGTSAAFRAAVAREIQHFIAELADYLELENHMPRAFTEAQAEAMVTIVFSAGAEALDVGVEQRRQLEERLVLQLRMISKGAYYWYRREQEKTAIIPGNVKDE [P0ACU5]", "unit-tag": "h", "observed": 5.97}
{"biopolymer-sequence": "MEQRRLASTEWVDIVNEENEVIAQASREQMRAQCLRHRATYIVVHDGMGKILVQRRTETKDFLPGMLDATAGGVVQADEQLLESARREAEEELGIAGVPFAEHGQFYFEDKNCRVWGALFSCVSHGPFALQEDEVSEVCWLTPEEITARCDEFTPDSLKALALWMKRNAKNEAVETETAE", "unit-tag": "h", "observed": 4.53}
{"biopolymer-sequence": "MNTTLFRWPVRVYYEDTDAGGVVYHASYVAFYERARTEMLRHHHFSQQALMAERVAFVVRKMTVEYYAPARLDDMLEIQTEITSMRGTSLVFTQRIVNAENTLLNEAEVLVVCVDPLKMKPRALPKSIVAEFKQ [P0A8Z3]", "unit-tag": "h", "observed": 5.99}
{"biopolymer-sequence": "MSSYANHQALAGLTLGKSTDYRDTYDASLLQGVPRSLNRDPLGLKADNLPFHGTDIWTLYELSWLNAKGLPQVAVGHVELDYTSVNLIESKSFKLYLNSFNQTRFNNWDEVRQTLERDLSTCAQGKISVALYRLDELEGQPIGHFNGTCIDDQDITIDNYEFTTDYLENATCGEKVVEETLVSHLLKSNCLITHQPDWGSLQIQYRGRQIDREKLLRYLVSFRHHNEFHEQCVERIFNDLLRFCQPEKLSVYARYTRRGGLDINPWRSNSDFVPSTTRLVRQ", "unit-tag": "h", "observed": 5.54}
{"biopolymer-sequence": "MRSKYIVIEGLEGAGKTTARNVVVETLEQLGIRDMVFTREPGGTQLAEKLRSLVLDIKSVGDEVITDKAEVLMFYAARVQLVETVIKPALANGTWVIGDRHDLSTQAYQGGGRGIDQHMLATLRDAVLGDFRPDLTLYLDVTPEVGLKRARARGELDRIEQESFDFFNRTRARYLELAAQDKSIHTIDATQPLEAVMDAIRTTVTHWVKELDA [P0A720]", "unit-tag": "h", "observed": 5.11}

Hello, the source for this data is the supplement of paper PMC11246515, in case you need it.
